- System: C. albicans CaCi-2
- protocol: Secondary assay 2: CaCi-2 in the absence of fluconazole
- Assay type: cell-based
- condition-context: Candida albicans, CACI2; no fluconazole, 48 h incubation; read-out: IC50 against C. albicans in the absence of fluconazole
pIC50: −log10 of the molar value.
result-type: pIC50

Simply: COC(=O)Cn1nc(-c2cccc(OC)c2)c2ccccc21 , C. albicans CaCi-2, pIC50 = < 4.59

* * *

- Tested on: Hsp90-dependent signaling pathway
- protocol: Yeast-reporter assay, Hsp90-dependent signaling pathway
- Type: cell-based
- condition-context: Saccharomyces cerevisiae
pIC50: −log10 of the molar value.
result-type: pIC50

# pIC50 of COC(=O)Cn1nc(-c2cccc(OC)c2)c2ccccc21 = < 4.59
